# method-notes: Compound cytotoxicity, XTT-based colorimetric assay
# Type: cell-based
# condition-set: human; uninfected MT2 cells, day 4, XTT; read-out: CC50
quantity-name: CC50 at 4 days

compound	test-value
Cn1nc(NS(C)(=O)=O)c2c(Cl)ccc(-n3c([C@H](Cc4cc(F)cc(F)c4)NC(=O)Cn4nc(C(F)F)c5c4C(F)(F)[C@@H]4C[C@H]54)nc4cc(NCC(F)F)ccc4c3=O)c21 (atropisomer, axis not shown; (P))	> 1 µM

Query compound follows.
query: Read the entry C[C@@H]1CN(c2ccc3c(=O)n(-c4ccc(Cl)c5c(NS(C)(=O)=O)nn(CC(F)F)c45)c([C@H](Cc4cc(F)cc(F)c4)NC(=O)Cn4nc(C(F)(F)F)c5c4C(F)(F)[C@@H]4C[C@H]54)nc3c2)C[C@H](C)O1 (atropisomer, axis not shown; (P)) and write its reported CC50 at 4 days.
result: > 0.5 µM
